Reference source for all entries: ChEMBL document CHEMBL3407437

For each record, write down the corresponding pIC50.
Experiment: Inhibition of Staphylococcus aureus UPPS using FPP/IPP as substrate by spectrophotometry
One number for each entry, as −log10 of the molar value.

So for O=P(O)(O)C(O)(Cc1cccc(-c2cccc(NS(=O)(=O)c3cccc(S(=O)(=O)Nc4cccc(-c5cccc(CC(O)(P(=O)(O)O)P(=O)(O)O)c5)c4)c3)c2)c1)P(=O)(O)O , the logged pIC50 turned out to be 6.41

Would you mind listing pIC50 for each of the following compounds?
1. NCCc1cc(Br)cc(C#Cc2cccc(C#Cc3cc(Br)cc(CCN)c3)c2)c1
2. O=C(Nc1cccc(C2=NCCCN2)c1)c1ccc(-c2ccc(C(=O)Nc3cccc(C4=NCCCN4)c3)cc2)cc1
3. CCCCCCOc1cccc(NC(=O)c2ccc(-c3ccc(C(=O)Nc4cccc(C5=NCCN5)c4)cc3)cc2)c1
4. O=C(Nc1ccc(C2=NCCN2)cc1)c1ccc(C(=O)Nc2ccc(C3=NCCN3)cc2)c([N+](=O)[O-])c1

Response line:
[5.85, 5.35, 5.05, 5.31]

Quick batch: pIC50 for everything below.
1. c1cc2cc(-c3ccc(-c4cc5ccc(C6=NCCCN6)cc5[nH]4)cc3)[nH]c2cc1C1=NCCCN1
2. OC[C@H]1O[C@@H](Oc2cccc(C#Cc3ccc(C#Cc4cccc(C5=NCCN5)c4)cc3)c2)[C@H](O)[C@@H](O)[C@@H]1O

Response line:
1: 6.33; 2: 5.25

Please report pIC50 for every entry that follows.
1. C(=C\c1cc2ccc(C3=NCCN3)cc2[nH]1)/c1cc2ccc(C3=NCCN3)cc2[nH]1
2. c1cc2cc(-c3ccc(-c4cc5ccc(C6=NCCN6)cc5[nH]4)cc3)[nH]c2cc1C1=NCCN1
3. COc1cccc(NC(=O)c2ccc(-c3ccc(C(=O)Nc4cccc(C5=NCCN5)c4)cc3)cc2)c1
4. Cn1cc(NC(=O)c2cc(NC(=O)CNC(=N)N)cn2C)cc1C(=O)NCCC(=N)N

Response line:
1. 5.29
2. 5.77
3. 5.68
4. 3.00
